- TEST_TARGET: HO2tail(C282A)^R (human HO2 residues 213–288, disulfide-reduced) (Homo sapiens, UniProt P30519, C282A)
- Sequence (P30519 213-288 C282A): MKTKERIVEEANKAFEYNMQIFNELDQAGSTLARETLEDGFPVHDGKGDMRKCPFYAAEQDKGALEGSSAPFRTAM
- EXPERIMENT_SUMMARY: Fe^3+-heme difference titration with HO2tail
- CONDITIONS_USED: read-out: Kd (titrations); 10 μM HO2tail(C282A)^R; 50 mM Tris pH 8.0, 50 mM KCl, 20 °C, anaerobic
OBSERVABLE: Kd
Don't forget the unit after the number, please.

Enquiry: Look at this compound and give its reported Kd. C=CC1=C(C)c2cc3[n-]c(cc4[n-]c(cc5nc(cc1n2)C(C)=C5C=C)c(C)c4CCC(=O)O)c(CCC(=O)O)c3C.[Fe+2] [Fe^3+-heme]
Return: 90 nM

====

- TEST_TARGET: HO2tail(C265A)^R (human HO2 residues 213–288, disulfide-reduced) (Homo sapiens, UniProt P30519, C265A)
- Sequence (P30519 213-288 C265A): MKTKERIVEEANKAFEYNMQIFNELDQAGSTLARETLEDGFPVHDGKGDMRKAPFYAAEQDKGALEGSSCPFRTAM
- EXPERIMENT_SUMMARY: Fe^3+-heme difference titration with HO2tail
- CONDITIONS_USED: read-out: Kd (titrations); 6 μM HO2tail(C265A)^R; 50 mM Tris pH 8.0, 50 mM KCl, 20 °C, anaerobic
OBSERVABLE: pKd
Note: pKd values are expressed as the negative base-10 logarithm of concentration in M.

Enquiry: Look at this molecule and give its reported pKd. C=CC1=C(C)c2cc3[n-]c(cc4[n-]c(cc5nc(cc1n2)C(C)=C5C=C)c(C)c4CCC(=O)O)c(CCC(=O)O)c3C.[Fe+2] [Fe^3+-heme]
Return: 6.05

====

- TEST_TARGET: HO2tail(C282A)^R (Homo sapiens, UniProt P30519, C282A)
- EXPERIMENT_SUMMARY: Fe^3+-heme on rate, anaerobic stopped flow, HO2tail
- CONDITIONS_USED: read-out: Kd (k-heme/k′heme); calculated from off and on rates
OBSERVABLE: Kd (nM)
Provide only the numeric value, understood in nM.

Enquiry: Value wanted: Kd (HO2tail(C282A)^R (Homo sapiens, UniProt P30519, C282A)) of entry C=CC1=C(C)c2cc3[n-]c(cc4[n-]c(cc5nc(cc1n2)C(C)=C5C=C)c(C)c4CCC(=O)O)c(CCC(=O)O)c3C.[Fe+2]
Return: 0.3

====

- TEST_TARGET: HO2core (human HO2 residues 1–248) (Homo sapiens, UniProt P30519)
OBSERVABLE: pKd
Note: pKd values are expressed as the negative base-10 logarithm of concentration in M.

Enquiry: Value wanted: pKd (HO2core (human HO2 residues 1–248) (Homo sapiens, UniProt P30519)) of entry C=CC1=C(C)c2cc3[n-]c(cc4[n-]c(cc5nc(cc1n2)C(C)=C5C=C)c(C)c4CCC(=O)O)c(CCC(=O)O)c3C.[Fe+2] [Fe^3+-heme]
Return: 7.85

====

Target chain: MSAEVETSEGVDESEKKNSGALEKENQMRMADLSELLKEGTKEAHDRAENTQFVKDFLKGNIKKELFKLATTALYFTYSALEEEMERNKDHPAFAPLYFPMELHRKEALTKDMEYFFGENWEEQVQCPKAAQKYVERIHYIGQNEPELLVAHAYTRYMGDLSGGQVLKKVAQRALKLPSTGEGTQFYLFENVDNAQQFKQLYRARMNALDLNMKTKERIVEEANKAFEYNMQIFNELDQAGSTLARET
OBSERVABLE: pKd
Note: pKd values are expressed as the negative base-10 logarithm of concentration in M.

Enquiry: Look at this compound and give its reported pKd. C=CC1=C(C)c2cc3[n-]c(cc4[n-]c(cc5nc(cc1n2)C(C)=C5C=C)c(C)c4CCC(=O)O)c(CCC(=O)O)c3C.[Fe+2]
Return: 9.70
